Target: UniProt O00329
Sequence (O00329 whole entry, canonical isoform): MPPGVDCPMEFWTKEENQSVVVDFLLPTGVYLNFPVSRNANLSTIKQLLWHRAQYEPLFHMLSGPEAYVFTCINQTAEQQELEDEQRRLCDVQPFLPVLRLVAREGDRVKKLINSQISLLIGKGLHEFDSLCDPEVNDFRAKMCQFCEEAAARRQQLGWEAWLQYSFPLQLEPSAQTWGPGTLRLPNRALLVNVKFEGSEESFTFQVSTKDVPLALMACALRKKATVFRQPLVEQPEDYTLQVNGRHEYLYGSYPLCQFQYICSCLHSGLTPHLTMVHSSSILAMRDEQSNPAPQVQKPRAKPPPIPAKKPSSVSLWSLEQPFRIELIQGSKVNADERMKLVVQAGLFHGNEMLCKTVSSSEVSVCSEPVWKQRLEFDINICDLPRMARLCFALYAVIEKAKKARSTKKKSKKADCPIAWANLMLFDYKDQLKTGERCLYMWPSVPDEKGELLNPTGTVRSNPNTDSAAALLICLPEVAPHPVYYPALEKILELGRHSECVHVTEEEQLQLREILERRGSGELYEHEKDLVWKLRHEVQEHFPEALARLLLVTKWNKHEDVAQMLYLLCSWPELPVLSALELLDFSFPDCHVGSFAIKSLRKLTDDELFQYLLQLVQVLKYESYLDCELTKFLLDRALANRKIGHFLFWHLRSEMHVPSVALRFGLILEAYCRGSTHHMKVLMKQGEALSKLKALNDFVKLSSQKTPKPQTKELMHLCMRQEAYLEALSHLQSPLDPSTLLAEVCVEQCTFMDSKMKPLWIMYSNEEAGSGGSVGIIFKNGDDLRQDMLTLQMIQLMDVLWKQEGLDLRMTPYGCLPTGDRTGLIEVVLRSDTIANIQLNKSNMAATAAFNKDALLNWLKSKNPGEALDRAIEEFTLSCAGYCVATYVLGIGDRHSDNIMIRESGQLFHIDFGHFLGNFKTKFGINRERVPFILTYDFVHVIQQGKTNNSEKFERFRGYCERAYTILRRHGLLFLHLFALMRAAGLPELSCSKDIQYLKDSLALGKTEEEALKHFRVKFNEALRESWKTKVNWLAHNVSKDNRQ
Sequence (P27986 whole entry partner, canonical isoform): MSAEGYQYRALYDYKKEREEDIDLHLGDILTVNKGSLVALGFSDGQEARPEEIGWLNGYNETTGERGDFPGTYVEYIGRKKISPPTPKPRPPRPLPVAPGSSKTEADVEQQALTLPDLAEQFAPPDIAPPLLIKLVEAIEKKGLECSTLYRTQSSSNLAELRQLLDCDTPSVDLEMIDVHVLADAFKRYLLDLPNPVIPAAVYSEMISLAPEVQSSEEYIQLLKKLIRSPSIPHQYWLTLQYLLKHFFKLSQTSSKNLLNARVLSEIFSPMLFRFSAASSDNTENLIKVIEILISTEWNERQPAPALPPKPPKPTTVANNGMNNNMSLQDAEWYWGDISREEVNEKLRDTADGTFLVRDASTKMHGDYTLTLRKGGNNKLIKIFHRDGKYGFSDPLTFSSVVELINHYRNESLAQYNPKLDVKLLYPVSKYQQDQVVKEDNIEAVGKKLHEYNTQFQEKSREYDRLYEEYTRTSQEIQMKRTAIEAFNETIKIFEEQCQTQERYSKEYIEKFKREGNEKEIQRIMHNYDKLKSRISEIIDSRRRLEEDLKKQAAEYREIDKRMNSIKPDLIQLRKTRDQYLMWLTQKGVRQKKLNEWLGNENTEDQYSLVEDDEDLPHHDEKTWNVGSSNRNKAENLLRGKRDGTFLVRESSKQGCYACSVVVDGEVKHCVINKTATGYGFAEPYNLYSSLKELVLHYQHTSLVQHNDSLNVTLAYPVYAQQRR
Assay: HTRF PI3K biochemical assay, delta isoform
Conditions: 0.3 nM enzyme, 100 uM ATP, 5 uM PIP2, form screened per table (Neutral or TFA salt)
Listed here are compounds together with their documented log10 IC50.
Quick note: numbers are log10 of IC50, with nM as the unit.

# example entries with known answers
C[C@@H]1C[C@H]1C(=O)N1CCN(c2cnc(C#N)c(-c3cn[nH]c3)n2)C[C@H]1C | 1.70
C[C@@H]1CN(c2cnc(C#N)c(-c3cnn(C)c3)n2)CCN1C(=O)NC1CC1 | 2.45
Cn1cc(-c2nc(N3CCC4(CC3)CNS(=O)(=O)N4CC3CC3)cnc2C#N)cn1 | 1.08
CO[C@H]1CCN(C(=O)N2CCN(c3cnc(C#N)c(-c4cnn(C)c4)n3)C[C@H]2C)C1 | 2.04
C[C@@H]1CN(c2cnc(C#N)c(-c3cnn(C)c3)n2)CCN1C(=O)C1CC(F)(F)C1 | 2.00
Cn1cc(-c2nc(N3CCC(C)(N4CCCCC4)CC3)cnc2C#N)cn1 | 1.85

Query for UniProt O00329: what log10 IC50 does the record show for COCCN1CC2(CCN(c3cnc(C#N)c(-c4cnn(C)c4)n3)CC2)N(CC2CC2)C1=O ?
1.26

Follow-up item: N#Cc1ncc(N2CCC3(CC2)COC(=O)N3CC2CC2)nc1-c1cnn(C(F)F)c1
1.73

Follow-up item: Cn1cc(-c2nc(N3CCC4(CC3)CNC(=O)N4CC(F)(F)F)cnc2C#N)cn1
1.51

Follow-up item: C[C@@H]1C[C@H]1C(=O)N1CCN(c2cnc(C#N)c(-c3cnn(C)c3)n2)C[C@H]1C
0.95

Follow-up item: C[C@@H]1CN(c2nc(-c3cnn(C)c3)cnc2C#N)CCN1C(=O)C1CC1
2.28
